These entries and their values trace back to ChEMBL document CHEMBL1201862.

System: SF-295
Experiment: NCI tumour cell line growth inhibition, 48 h
Calls of active or inactive are those of the source. No stated cut-off is given here; in the data, active = GI50 up to about 1.1 µM and inactive = higher.
READOUT_NAME: GI50

The cases that follow already have their GI50 on record.
NC(=S)N/N=C1\CCCCc2ccccc21    > 10 µM (inactive)
N#CC(/C(=N/NC(=O)C(=O)NN)C(=O)Nc1nc([N+](=O)[O-])cs1)c1ccc(Cl)cc1 (stereo not given)    > 100 µM (inactive)

// moving on: another record for GI50
Answer with the recorded GI50 for the compound listed here: O=C(O)CCCCCCC[C@@H]1S[C@H]1CCCCCCO
> 100 µM (inactive)

====

System: MOLT-4
Experiment: NCI tumour cell line growth inhibition, 48 h
Calls of active or inactive are those of the source. No stated cut-off is given here; in the data, active = GI50 up to about 1.1 µM and inactive = higher.
Log the outcome using a class from active, inactive

O=C(O)CC/C(=N\Nc1nsc2ccccc12)c1ccccc1    inactive
O=c1c2ccccc2n2nnc3ccc(NCCNCCO)c1c32    active
COc1cc(C2c3cc4c(cc3[C@@H](Nc3ccccc3)C3CO[C@@H](OC)[C@H]23)OCO4)cc(OC)c1O (some centres not stated)    active
NC(=O)c1cccc(C2OC(COP(=O)(O)O)C(O)C2O)c1 (configuration not stated)    inactive
Cc1ccc(S(=O)(=O)c2ccccn2)cc1    inactive
CC(=O)OCCOCn1c2c(c(=S)[nH]c1=O)CCC2    inactive
CCC1(C)NC(c2cnccn2)=NN1c1ccc(Cl)cc1 (configuration not stated)    inactive
CC(C)c1cccc(C(=O)NCCN(C)C)c1[N+](=O)[O-]    inactive

What did this assay record as the result for CCC#CCCCCCCCCC(F)C(=O)O (configuration not stated) ?
inactive

What did this assay record as the result for O=c1oc2cc(/N=C/c3ccccc3Cl)ccc2c2ccccc12 ?
inactive

What did this assay record as the result for COc1cccc(NC(=O)C(=O)C(C(=O)c2ccccc2F)C2OC(=O)c3ccccc32)c1 (configuration not stated) ?
inactive

What did this assay record as the result for COc1cccc2c1-c1nc(N)c3c(OC)cccc3c1C2=O ?
inactive

What did this assay record as the result for Nc1nc(N)c2c3c(cnc2n1)CC(c1ccccc1)CC3 (configuration not stated) ?
inactive

What did this assay record as the result for CN(C)CCN(C)C(=O)c1cccc2cccc(C(=O)O)c12 ?
inactive

What did this assay record as the result for CN(C(=O)C1=CCC2(CC1)OCCO2)c1ccccc1OS(=O)(=O)C(F)(F)F ?
inactive

====

Test system: TK-10
Assay: NCI tumour cell line growth inhibition, 48 h
The source made the active and inactive calls. No stated cut-off is given here; in the data, active = GI50 up to about 1.1 µM and inactive = higher.
READOUT_NAME: GI50

The cases that follow already have their GI50 on record.
CC(C)(C)c1ccc(O)c(Br)c1    > 100 µM (inactive)
O=C1C=CC(=O)c2c1ccc1c3ccccc3n(-c3ccccc3)c21    7.66 µM (inactive)
Cc1nc(=O)[nH]c2[nH][nH]c(=O)c12    > 100 µM (inactive)
O=C1NC(O)c2cc3ccccc3cc2O1 (configuration not stated)    > 100 µM (inactive)
C=CCN1C(=O)C[C@H](Cc2ccccc2)NC(=O)C[C@H](Cc2ccccc2)N(CC=C)C(=O)C[C@H](Cc2ccccc2)NC(=O)C[C@@H]1Cc1ccccc1    8.79 µM (inactive)

Answer with the recorded GI50 for the compound listed here: CCCCC1(O)CC2CC1C(C)C2(C)C (configuration not stated)
> 100 µM (inactive)

Answer with the recorded GI50 for the compound listed here: Cc1nc2c(sc(=S)n2-c2ccccc2)c2nc3ncccc3n12
33.7 µM (inactive)
